System: transcriptional activity of hTERT
protocol-details: SEAP reporter assay of hTERT expression, PhTERT-SEAP (hTERT-BJ1)
Assay type: cell-based, human
setup-conditions: Homo sapiens; 220 μM, hTERT-BJ1; read-out: Relative SEAP activity (%)
readout-kind: activity at 220 µM (%)
Just the number in %, nothing appended.

Worked examples, 5 compounds total:
[
  {
    "compound": "Nc1ccc(Sc2cccc3c2C(=O)c2cccc(Sc4ccc(N)cc4)c2C3=O)cc1 [IIh, 1,5-Bis(p-aminophenylthio)-Anthraquinone]",
    "u": "%",
    "activity at 220 µM": 26
  },
  {
    "compound": "O=C(Oc1cccc2c1C(=O)c1cccc(OC(=O)c3ccccc3)c1C2=O)c1ccccc1 [IIIe, 1,5-Bis(benzoyloxy)-anthraquinone]",
    "u": "%",
    "activity at 220 µM": 84
  },
  {
    "compound": "O=C1c2cccc(SCCc3ccccc3)c2C(=O)c2cccc(SCCc3ccccc3)c21 [IIk, 1,5-Bis(phenylethylthio)-anthraquinone]",
    "u": "%",
    "activity at 220 µM": 110
  },
  {
    "compound": "Nc1cccc(Sc2cccc3c2C(=O)c2cccc(Sc4cccc(N)c4)c2C3=O)c1 [IIg, 1,5-Bis(m-aminophenylthio)-Anthraquinone]",
    "u": "%",
    "activity at 220 µM": 8
  },
  {
    "compound": "O=C1c2cccc(SCc3ccccc3)c2C(=O)c2cccc(SCc3ccccc3)c21 [IIi, 1,5-Bis(benzylthio)-anthraquinone]",
    "u": "%",
    "activity at 220 µM": 87
  }
]

## Task Give the value of activity at 220 µM reported for the following: COc1ccc(CSc2cccc3c2C(=O)c2cccc(SCc4ccc(OC)cc4)c2C3=O)cc1 [IIj]
## Result 118

## Task Give the value of activity at 220 µM reported for the following: Nc1ccccc1Sc1cccc2c1C(=O)c1cccc(Sc3ccccc3N)c1C2=O [IIf, 1,5-Bis(o-aminophenylthio)-Anthraquinone]
## Result 115

----------
# reported viability at 48 h, 22 µM; entries follow
protocol-details: MTT relative viability, PhTERT-SEAP (H1299) cells
setup-conditions: human
Just the number in %, nothing appended.

[
  {
    "compound-smiles": "O=C1c2cccc(SCc3ccccc3)c2C(=O)c2cccc(SCc3ccccc3)c21",
    "u": "%",
    "viability at 48 h, 22 µM": 44
  },
  {
    "compound-smiles": "Nc1cccc(Sc2cccc3c2C(=O)c2cccc(Sc4cccc(N)c4)c2C3=O)c1",
    "u": "%",
    "viability at 48 h, 22 µM": 68
  },
  {
    "compound-smiles": "O=C1c2cccc(SCCc3ccccc3)c2C(=O)c2cccc(SCCc3ccccc3)c21",
    "u": "%",
    "viability at 48 h, 22 µM": 51
  },
  {
    "compound-smiles": "O=C(Oc1cccc2c1C(=O)c1cccc(OC(=O)c3ccccc3)c1C2=O)c1ccccc1",
    "u": "%",
    "viability at 48 h, 22 µM": 60
  },
  {
    "compound-smiles": "O=C1c2cccc(NCCc3ccccc3)c2C(=O)c2cccc(NCCc3ccccc3)c21",
    "u": "%",
    "viability at 48 h, 22 µM": 97
  }
]

## Task Give the value of viability at 48 h, 22 µM reported for the following: `Nc1ccc(Sc2cccc3c2C(=O)c2cccc(Sc4ccc(N)cc4)c2C3=O)cc1`
## Result 76

## Task Give the value of viability at 48 h, 22 µM reported for the following: `Nc1ccccc1Sc1cccc2c1C(=O)c1cccc(Sc3ccccc3N)c1C2=O`
## Result 50

## Task Give the value of viability at 48 h, 22 µM reported for the following: `COc1ccc(CSc2cccc3c2C(=O)c2cccc(SCc4ccc(OC)cc4)c2C3=O)cc1`
## Result 59

----------
System: transcriptional activity of hTERT
protocol-details: SEAP reporter assay of hTERT expression, PhTERT-SEAP (hTERT-BJ1)
Type: cell-based, human
setup-conditions: 1.9 μM, PhTERT-SEAP (hTERT-BJ1)
# reported Relative SEAP activity (%); entries follow
Just the number in %, nothing appended.

[
  {
    "compound": "O=C(Nc1ccc(NC(=O)c2ccc(Cl)cc2)c2c1C(=O)c1ccccc1C2=O)c1ccc(Cl)cc1 [VI16]",
    "Relative SEAP activity (%)": 116
  }
]

## Task Please indicate recorded Relative SEAP activity (%) of O=C(Nc1ccc(NC(=O)c2ccccc2Cl)c2c1C(=O)c1ccccc1C2=O)c1ccccc1Cl [VI2] measured with transcriptional activity of hTERT.
## Result 110

## Task Please indicate recorded Relative SEAP activity (%) of O=C(Nc1ccc(NC(=O)c2cccc(Cl)c2)c2c1C(=O)c1ccccc1C2=O)c1cccc(Cl)c1 [VI5] measured with transcriptional activity of hTERT.
## Result 98

## Task Please indicate recorded Relative SEAP activity (%) of O=C(Nc1ccc(NC(=O)c2ccc(F)cc2F)c2c1C(=O)c1ccccc1C2=O)c1ccc(F)cc1F [VI18] measured with transcriptional activity of hTERT.
## Result 48

----------
protocol-details: MTT relative viability, PhTERT-SEAP (H1299) cells
setup-conditions: human
readout-kind: viability at 48 h, 193 µM (%)
Just the number in %, nothing appended.

## Task Give the value of viability at 48 h, 193 µM reported for the following: O=C1c2c(O)ccc(O)c2C(=O)c2c(NCCNCCO)ccc(NCCNCCO)c21 [Mitoxantrone, reference compound]
## Result 39

----------
protocol-details: MTT relative viability, PCMV-SEAP (hTERT-BJ1) cells
Format: cell-based
setup-conditions: human, stable PCMV-SEAP reporter clone, 2.0 μM
readout-kind: viability at 48 h, 2 µM (%)
Just the number in %, nothing appended.

## Task Give the value of viability at 48 h, 2 µM reported for the following: `COc1ccc(CSc2cccc3c2C(=O)c2cccc(SCc4ccc(OC)cc4)c2C3=O)cc1`
## Result 116

----------
# reported viability at 48 h, 280 µM; entries follow
protocol-details: MTT relative viability, PhTERT-SEAP (hTERT-BJ1) cells
setup-conditions: human
Just the number in %, nothing appended.

Worked examples, 2 compounds total:
[
  {
    "compound": "CCC(=O)Oc1cccc2c1C(=O)c1cccc(OC(=O)CC)c1C2=O [IIIa, 1,5-Bis(propionyloxy)-anthraquinone]",
    "viability at 48 h, 280 µM (%)": 93
  },
  {
    "compound": "CCCSc1cccc2c1C(=O)c1cccc(SCCC)c1C2=O [IIc, 1,5-Bis(propylthio)-anthraquinone]",
    "viability at 48 h, 280 µM (%)": 39
  }
]

// moving on: another record for viability at 48 h, 280 µM
## Task Give the value of viability at 48 h, 280 µM reported for the following: O=C1c2cccc(SCCO)c2C(=O)c2cccc(SCCO)c21 [IIb, 1,5-Bis(hydroxyethylthio)-anthraquinone]
## Result 23

----------
System: rat glioma C6 cells
protocol-details: Cytotoxicity assay (XTT colorimetric), C6 cells
Assay type: cell-based
setup-conditions: Rattus norvegicus, C6; 48 h of drug exposure
readout-kind: log10 IC50 (log10 of the value in µM)
Please be aware that the numbers have been log10-transformed from IC50 in µM.

[
  {
    "compound": "CCCNc1cccc2c1C(=O)c1cccc(NCCC)c1C2=O [IVf, 1,5-Bis(propylamino)anthraquinone]",
    "assayed-system": "rat glioma C6 cells",
    "log10 IC50": 1.20
  },
  {
    "compound": "O=C1c2cccc(SCCc3ccccc3)c2C(=O)c2cccc(SCCc3ccccc3)c21 [IIk, 1,5-Bis(phenylethylthio)-anthraquinone]",
    "assayed-system": "rat glioma C6 cells",
    "log10 IC50": 1.52
  },
  {
    "compound": "CCSc1cccc2c1C(=O)c1cccc(SCC)c1C2=O [IIa, 1,5-Bis(ethylthio)-anthraquinone]",
    "assayed-system": "rat glioma C6 cells",
    "log10 IC50": -1.70
  },
  {
    "compound": "O=C1c2cccc(SCc3ccccc3)c2C(=O)c2cccc(SCc3ccccc3)c21 [IIi, 1,5-Bis(benzylthio)-anthraquinone]",
    "assayed-system": "rat glioma C6 cells",
    "log10 IC50": 1.58
  },
  {
    "compound": "CCCCCC(=O)Oc1cccc2c1C(=O)c1cccc(OC(=O)CCCCC)c1C2=O [IIIc, 1,5-Bis(hexanoyloxy)-anthraquinone]",
    "assayed-system": "rat glioma C6 cells",
    "log10 IC50": 1.59
  },
  {
    "compound": "O=C1c2c(O)ccc(O)c2C(=O)c2c(NCCNCCO)ccc(NCCNCCO)c21 [Mitoxantrone, reference compound]",
    "assayed-system": "rat glioma C6 cells",
    "log10 IC50": -1.15
  },
  {
    "compound": "O=C(Cc1ccccc1)Oc1cccc2c1C(=O)c1cccc(OC(=O)Cc3ccccc3)c1C2=O [IIIm, 1,5-Bis(phenylacetyloxy)-anthraquinone]",
    "assayed-system": "rat glioma C6 cells",
    "log10 IC50": 1.59
  },
  {
    "compound": "CCCC(=O)Oc1cccc2c1C(=O)c1cccc(OC(=O)CCC)c1C2=O [IIIb, 1,5-Bis(butyryloxy)-anthraquinone]",
    "assayed-system": "rat glioma C6 cells",
    "log10 IC50": 1.59
  },
  {
    "compound": "Nc1cccc(Sc2cccc3c2C(=O)c2cccc(Sc4cccc(N)c4)c2C3=O)c1 [IIg, 1,5-Bis(m-aminophenylthio)-Anthraquinone]",
    "assayed-system": "rat glioma C6 cells",
    "log10 IC50": 1.42
  }
]

## Task Give the value of log10 IC50 reported for the following: CCN(CC)CC(=O)Nc1ccc(NC(=O)CN(CC)CC)c2c1C(=O)c1ccccc1C2=O [VI33]
## Result 0.65
